Below, each entry is listed with its recorded pIC50.
measured on: PI3K α (p110α/p85α) (Homo sapiens)
Sequence (P42336 whole entry): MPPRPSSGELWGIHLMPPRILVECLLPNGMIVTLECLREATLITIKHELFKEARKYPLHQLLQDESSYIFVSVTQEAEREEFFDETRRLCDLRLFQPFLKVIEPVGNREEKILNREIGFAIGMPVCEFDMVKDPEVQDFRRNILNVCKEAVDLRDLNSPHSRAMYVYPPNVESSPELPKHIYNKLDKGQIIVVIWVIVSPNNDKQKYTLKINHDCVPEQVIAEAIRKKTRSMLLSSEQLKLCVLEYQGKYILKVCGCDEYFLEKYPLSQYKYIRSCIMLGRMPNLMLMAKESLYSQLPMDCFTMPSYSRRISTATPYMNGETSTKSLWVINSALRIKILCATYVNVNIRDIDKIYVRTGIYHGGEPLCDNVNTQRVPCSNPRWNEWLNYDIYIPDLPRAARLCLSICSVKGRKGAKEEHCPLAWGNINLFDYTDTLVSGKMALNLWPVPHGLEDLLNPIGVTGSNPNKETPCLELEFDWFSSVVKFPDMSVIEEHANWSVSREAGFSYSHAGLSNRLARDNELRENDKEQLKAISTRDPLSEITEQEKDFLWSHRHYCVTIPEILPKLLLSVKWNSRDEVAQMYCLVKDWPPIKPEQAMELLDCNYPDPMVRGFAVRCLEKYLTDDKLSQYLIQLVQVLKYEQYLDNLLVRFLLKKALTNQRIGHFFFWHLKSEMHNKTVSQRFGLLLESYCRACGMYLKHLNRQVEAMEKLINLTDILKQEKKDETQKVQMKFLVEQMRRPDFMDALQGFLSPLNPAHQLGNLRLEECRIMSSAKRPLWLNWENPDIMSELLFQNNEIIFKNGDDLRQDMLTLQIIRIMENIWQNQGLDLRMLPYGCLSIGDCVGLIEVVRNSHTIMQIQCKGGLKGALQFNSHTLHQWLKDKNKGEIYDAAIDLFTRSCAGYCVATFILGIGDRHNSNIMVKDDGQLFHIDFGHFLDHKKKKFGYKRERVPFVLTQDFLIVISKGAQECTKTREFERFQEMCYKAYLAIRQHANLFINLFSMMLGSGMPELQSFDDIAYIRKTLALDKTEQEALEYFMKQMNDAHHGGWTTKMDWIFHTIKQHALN
Sequence (P27986 whole entry partner): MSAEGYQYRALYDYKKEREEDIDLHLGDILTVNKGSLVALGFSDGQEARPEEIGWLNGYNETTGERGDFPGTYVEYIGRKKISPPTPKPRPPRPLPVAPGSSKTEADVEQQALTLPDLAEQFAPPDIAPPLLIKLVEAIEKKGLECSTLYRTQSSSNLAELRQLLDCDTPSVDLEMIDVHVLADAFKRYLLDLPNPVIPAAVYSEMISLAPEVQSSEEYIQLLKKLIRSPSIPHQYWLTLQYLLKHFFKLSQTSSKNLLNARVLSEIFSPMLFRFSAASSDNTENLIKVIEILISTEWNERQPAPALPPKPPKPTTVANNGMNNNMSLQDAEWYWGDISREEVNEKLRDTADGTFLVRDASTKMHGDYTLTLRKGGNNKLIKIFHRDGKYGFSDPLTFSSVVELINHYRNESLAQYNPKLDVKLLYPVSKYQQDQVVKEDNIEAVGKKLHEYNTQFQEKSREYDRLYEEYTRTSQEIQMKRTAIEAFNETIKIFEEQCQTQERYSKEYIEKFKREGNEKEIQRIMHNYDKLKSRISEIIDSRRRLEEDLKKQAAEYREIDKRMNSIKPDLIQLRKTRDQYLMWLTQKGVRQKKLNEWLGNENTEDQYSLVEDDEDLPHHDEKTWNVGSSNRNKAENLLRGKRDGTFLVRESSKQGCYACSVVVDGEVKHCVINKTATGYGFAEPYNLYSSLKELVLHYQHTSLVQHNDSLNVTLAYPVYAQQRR
test name: PI3K α (p110α/p85α) inhibition assay
pIC50: −log10 of the molar value.

Example entries and their recorded answers appear below.
CNc1nc(C)c2cc(-c3ccc(O)c(Cl)c3)ccc2n1 [Compound 10] : > 6.00
CNc1nc(C)c2cc(-c3ccc(O)c(F)c3)ccc2n1 [Compound 11] : > 6.00
CNc1nc(C)c2cc(-c3cnc4[nH]ccc4c3)ccc2n1 [Compound 2] : > 6.00
Nc1ncc2cc(-c3cccc(O)c3)ccc2n1 [Compound 3] : > 6.30

Consider the molecule shown here: Cc1nc(N)nc2ccc(-c3cccc(O)c3)cc12 [Compound 4] What is its recorded pIC50? > 6.30

Would you kindly repeat that for Cc1nc(N)nc2ccc(-c3cnc4[nH]ccc4c3)cc12 [Compound 5] ? > 6.00

Would you kindly repeat that for Cc1nc(Nc2cccnc2)nc2ccc(-c3cc(O)cc(F)c3)cc12 [Compound 7] ? > 7.00
